# ASSAYED SYSTEM: GST P1-1 (Homo sapiens)
# Construct: purchased Sigma-Aldrich
# Sequence (P09211 2-210 limits assumed): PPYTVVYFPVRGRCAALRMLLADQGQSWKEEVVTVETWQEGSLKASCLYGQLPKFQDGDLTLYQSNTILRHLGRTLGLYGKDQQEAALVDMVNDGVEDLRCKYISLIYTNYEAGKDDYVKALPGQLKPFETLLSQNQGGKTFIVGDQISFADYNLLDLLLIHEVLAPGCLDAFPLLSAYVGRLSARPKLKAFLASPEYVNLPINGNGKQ
# TEST: Determination of IC50 for GST P1-1 enzyme (dose-response / reconfirmation assay)
# Format: biochemical
# CONDITION INFO: Table 2, rounded values; read-out: IC50 GSTP1 enzymatic reaction
pIC50: −log10 of the molar value.
This listing pairs molecules with measured pIC50.
ENDPOINT: pIC50

1) CC(C)c1cc(C(C)C)c(CC(=O)NS(=O)(=O)Oc2c(C(C)C)cccc2C(C)C)c(C(C)C)c1 :: 6.40
2) C[C@H]1COC2=C1C(=O)C(=O)c1c2ccc2c1CCCC2(C)C :: 5.05
3) O=C1NC(=O)/C(=C/c2ccc(-c3ccc(F)cc3O)o2)S1 :: 6.22
4) CC(C)(C)C(=O)CN1C(=O)[C@H](NC(=O)Nc2cccc(C(=O)O)c2)CN(C2CCCCC2)c2ccccc21 [Nastorazepide] :: 5.48
